Origin of values: patent US10039759B2

Record form. Attribute: IC50. Fill in for each entry.
Molecular target: UniProt P21802
Assay: FGFR2 (enzymatic assay), TR-FRET
Type: biochemical
Conditions: 0.4 μM ATP, 60 min; pIC50 = -log IC50 (M); average if tested multiple times; read-out: FGFR 2 pIC50 (converted)
Give bare numbers, in M.

Consider the reported IC50 for these compounds:
compound | parameter | readout unit | value reported
COc1cc(OC)cc(C(CCO)c2ccc3ncc(-c4cnn(C)c4)cc3c2)c1 (centres unmarked) [Compound 34] | IC50 | M | 1.86e-07
COc1cc(OC)cc(N(CCO)c2ccc3ncc(-c4ccccc4)cc3c2)c1 | IC50 | M | 5.5e-08
COc1cc(OC)cc(N(CCCN)c2ccc3ncc(-c4cnn(C)c4)cc3c2)c1 | IC50 | M | 2.29e-09
COc1cc(OC)cc(N(CCO)c2ccc3ncc(N4CCOCC4)cc3c2)c1 | IC50 | M | 1.82e-07
COc1cc(OC)cc(N(CC(O)C(F)(F)F)c2ccc3ncc(-c4cnn(C)c4)cc3c2)c1 (single isomer, unassigned) [Compound 25] | IC50 | M | 1.95e-08
COc1cc(OC)cc(N(Cc2ncc[nH]2)c2ccc3ncc(-c4ccccc4)cc3c2)c1 | IC50 | M | 6.61e-09
COc1cc(OC)cc(C(CC#N)c2ccc3ncc(-c4cnn(C)c4)cc3c2)c1 (centres unmarked) | IC50 | M | 2.82e-07
COc1cc(OC)cc(N(Cc2ncc[nH]2)c2ccc3ncc(-c4cnn(C)c4)cc3c2)c1 | IC50 | M | 2.51e-09

List the reported IC50 of each compound below.
1. COc1cc(OC)cc(N(CCNC(C)C)c2ccc3ncc(-c4cnn(CCO)c4)cc3c2)c1
2. COc1cc(OC)cc(N(CCO)c2ccc3ncc(-c4cnn(C)c4)cc3c2)c1

Out:
1: 6.61e-09; 2: 1.48e-08

* * *

Molecular target: FGFR2 (h) (Homo sapiens, UniProt P21802)
Sequence (P21802 22-821): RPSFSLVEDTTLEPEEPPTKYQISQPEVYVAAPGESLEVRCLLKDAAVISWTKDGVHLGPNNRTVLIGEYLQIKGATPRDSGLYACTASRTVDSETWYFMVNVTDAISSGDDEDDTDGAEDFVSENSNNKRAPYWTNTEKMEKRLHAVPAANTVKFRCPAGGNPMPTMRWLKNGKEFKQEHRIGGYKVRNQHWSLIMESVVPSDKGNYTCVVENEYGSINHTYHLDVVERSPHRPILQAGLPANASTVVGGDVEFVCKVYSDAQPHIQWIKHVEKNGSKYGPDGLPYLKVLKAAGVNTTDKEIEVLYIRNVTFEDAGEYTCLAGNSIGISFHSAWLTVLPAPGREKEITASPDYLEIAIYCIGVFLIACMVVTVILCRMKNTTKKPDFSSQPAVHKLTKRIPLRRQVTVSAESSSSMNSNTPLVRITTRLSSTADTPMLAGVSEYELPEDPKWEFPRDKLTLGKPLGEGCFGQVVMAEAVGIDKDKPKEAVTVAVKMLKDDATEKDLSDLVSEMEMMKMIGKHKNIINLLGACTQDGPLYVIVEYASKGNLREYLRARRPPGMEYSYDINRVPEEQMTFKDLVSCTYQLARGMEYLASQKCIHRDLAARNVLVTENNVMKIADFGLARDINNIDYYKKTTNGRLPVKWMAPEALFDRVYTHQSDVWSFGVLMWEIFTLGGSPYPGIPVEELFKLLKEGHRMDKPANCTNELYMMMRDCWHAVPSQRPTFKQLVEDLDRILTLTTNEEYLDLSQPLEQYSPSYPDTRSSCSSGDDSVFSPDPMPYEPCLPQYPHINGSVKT
Assay: FGFR2 (enzymatic assay), TR-FRET
Format: biochemical
Details: 0.4 μM ATP, 60 min; pIC50 = -log IC50 (M); average if tested multiple times; read-out: FGFR 2 pIC50 (converted)
parameter: IC50 (M)
Numbers only, in M.

compound | IC50, M
COc1cc(OC)cc(N(CC#Cc2nccc(OC)n2)c2ccc3ncc(-c4cnn(C)c4)cc3c2)c1 | 1.55e-08
COc1cc(OC)cc(N(CCNC(C)C)c2ccc3ncc(-c4cn[nH]c4)cc3c2)c1 | 2.57e-09
COc1cc(OC)cc(N(CCCNCC(F)(F)F)c2ccc3ncc(-c4cnn(C)c4)cc3c2)c1 | 3.16e-08
COc1cc(OC)cc(C(O)c2ccc3ncc(-c4cnn(C)c4)cc3c2)c1 (centres unmarked) | 4.17e-07
COc1cc(OC)cc(N(Cc2nccn2S(=O)(=O)N(C)C)c2ccc3ncc(-c4ccncc4)cc3c2)c1 | 1.29e-08

List the reported IC50 of each compound below.
1. COc1cc(OC)c(F)c(N(CC#Cc2ncccc2OC)c2ccc3ncc(-c4cnn(C)c4)cc3c2)c1
2. COc1cc(OC)cc(C(CCNC(C)C)c2ccc3ncc(-c4cnn(C)c4)cc3c2)c1 (centres unmarked)
3. CNCCN(c1ccc2ncc(-c3cnn(C)c3)cc2c1)c1c(F)c(OC)cc(OC)c1F

Out:
1: 1.05e-08; 2: 2.04e-08; 3: 2.45e-09
